- Test system: SF-539 CNS
- experiment.summary: NCI tumour cell line growth inhibition, 48 h
value.kind: TGI (µM)

Cc1cc(C)n(C(=O)c2nn(-c3ccc(Cl)cc3)cc2O)n1
35.1
C(=C\c1nccc2c1[nH]c1ccccc12)/c1ccccc1
4.51
O=C(O)c1cc(Cc2ccc(O)c(C(=O)O)c2)ccc1O (tested in a mixture with another compound)
26.6
O=C(O)c1cc(O)c2c(c1)C([C@@H]1c3cccc(O)c3C(=O)c3c(O)cc(C(=O)O)cc31)c1cccc(O)c1C2=O (stereo not given in full)
55

----------
- Test system: MDA-MB-435
GI50 values, listed per item
value.kind: GI50

Oc1c(I)cc(-c2nc3ccccc3s2)cc1CN(Cc1ccccn1)Cc1ccccn1
428 nM
NC(=S)N/N=C\c1nccc2c(N)cccc12
379 nM
CCOC(=O)N[C@H]1CCc2c(Br)c(OC)c(OC)c(OC)c2-c2ccc(SC)c(=O)cc21
< 10 nM
O=C(Nc1ccc(Cl)cc1)c1cc(S(=O)(=O)Nc2nnc(-c3ccccc3)c(-c3ccccc3)n2)c(SCc2ccccc2)cc1Cl
21200 nM
Cc1cccc2c1O/C(=C\c1ccc([N+](=O)[O-])o1)C2=O
1020 nM
Cc1cc(C)n(C(=O)c2nn(-c3ccc(Cl)cc3)cc2O)n1
3940 nM
C1=C(c2ccccc2)C(c2ccc(OCCN3CCCCC3)cc2)Oc2ccccc21 (stereo not given)
1640 nM
COc1ccc(-c2nnc(N3CCN(C(=O)CN4CCN(c5ccc(Cl)cc5)CC4)CC3)nc2-c2ccc(OC)cc2)cc1
66100 nM
C(=C\c1nccc2c1[nH]c1ccccc12)/c1ccccc1
356 nM
CC(=O)/C=C/C1=C(c2cccs2)c2ccccc2CC1
25800 nM

----------
- System: EKVX NSCLC
- experiment.summary: NCI tumour cell line growth inhibition, 48 h
TGI values, listed per item
value.kind: TGI

CC(/C=N\NC(=S)N(C)C)=N/NC(=S)N(C)C
> 100 µM
O=C1c2ccccc2C(C2c3ccccc3C(=O)c3cc(Br)ccc32)c2ccc(Br)cc21 (stereo not drawn)
> 100 µM
O=[N+]([O-])c1ccc2c(c1)nc(Cc1ccc(Cl)cc1)n2C[C@@H]1CCCN2CCCCC12 (stereo partly drawn)
> 41.2 µM
Cc1cc(=O)oc2c3c(ccc12)OC(c1ccc(Br)cc1)CC3=O (stereo not drawn)
31.8 µM
COc1ccc(-c2nnc(N3CCN(C(=O)CN4CCN(c5ccc(Cl)cc5)CC4)CC3)nc2-c2ccc(OC)cc2)cc1
> 100 µM
O=C(Cn1c2ccc(Br)cc2c2nc3ccccc3nc21)N/N=C/c1ccccc1
> 100 µM
O=C(CNc1ncco1)Nc1ccc(S(=O)(=O)c2ccc(NC(=O)CNc3ncco3)cc2)cc1
9 µM
Cc1nc(Nc2ccccc2)sc1C(=O)NNc1ccc([N+](=O)[O-])cc1[N+](=O)[O-]
71.2 µM

----------
- System: ACHN renal
- experiment.summary: NCI tumour cell line growth inhibition, 48 h
GI50 values, listed per item
value.kind: GI50

C1=C(c2ccccc2)C(c2ccc(OCCN3CCCCC3)cc2)Oc2ccccc21 (centres undefined)
1.66 µM
CC(=O)c1cc2c(c3ccsc13)-c1ccccc1CC2
45.5 µM
Oc1c(I)cc(-c2nc3ccccc3s2)cc1CN(Cc1ccccn1)Cc1ccccn1
0.286 µM
N#C/C(N)=C(\C#N)N=Cc1csc2ccccc12
29.9 µM
O=C(NNS(=O)(=O)c1ccc(F)cc1)c1cccnc1Nc1ccc(Cl)cc1Cl
46.1 µM
[C-]#[N+][C@]12C(=O)[C@H](CCC1(C)C)C(C)(C)[C@H]1C(=O)N(C)c3cccc2c31
80.7 µM
O=C1c2ccn(CCCCN3CCCCC3)c2C(=O)c2c1c(O)c1ccccc1c2O
18.7 µM
C[C@]12C3CC[C@@]4(CO)C[C@]3(CCC1[C@](C)(C(=O)O)CC[C@@H]2O)CC4=O (some centres undefined)
> 100 µM
COc1cc2cc(Oc3ccc(NC(=O)Nc4ccc(Cl)c(C(F)(F)F)c4)cc3)c(C)nc2cc1OC
1.07 µM
